# system-under-test: MoATG4 (Pyricularia oryzae)
# Sequence (Q523C3 whole entry, looked up): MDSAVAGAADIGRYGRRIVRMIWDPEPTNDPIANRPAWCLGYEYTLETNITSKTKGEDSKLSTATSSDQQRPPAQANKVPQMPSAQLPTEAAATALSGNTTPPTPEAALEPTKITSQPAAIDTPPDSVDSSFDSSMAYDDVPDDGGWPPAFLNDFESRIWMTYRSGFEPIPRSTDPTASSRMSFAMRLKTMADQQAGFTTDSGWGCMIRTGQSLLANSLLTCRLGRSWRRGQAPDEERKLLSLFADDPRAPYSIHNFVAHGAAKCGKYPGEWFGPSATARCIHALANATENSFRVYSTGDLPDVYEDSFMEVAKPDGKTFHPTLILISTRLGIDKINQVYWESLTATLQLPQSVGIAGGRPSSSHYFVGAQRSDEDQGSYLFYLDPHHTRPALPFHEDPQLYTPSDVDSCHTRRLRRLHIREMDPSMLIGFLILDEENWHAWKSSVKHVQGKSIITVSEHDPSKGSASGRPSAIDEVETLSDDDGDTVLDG
property-measured: pKd
As a rule, pKd stands for the negative log10 of the concentration, concentration in M.

Record summary for O=c1c2ccccc2[se]n1-c1ccccc1 : reported pKd = 9.00

Reference source: paper PMC10904834
